Entries below carry reported IC50 on Histone deacetylase 3 (Homo sapiens).
Sequence (O15379 whole entry): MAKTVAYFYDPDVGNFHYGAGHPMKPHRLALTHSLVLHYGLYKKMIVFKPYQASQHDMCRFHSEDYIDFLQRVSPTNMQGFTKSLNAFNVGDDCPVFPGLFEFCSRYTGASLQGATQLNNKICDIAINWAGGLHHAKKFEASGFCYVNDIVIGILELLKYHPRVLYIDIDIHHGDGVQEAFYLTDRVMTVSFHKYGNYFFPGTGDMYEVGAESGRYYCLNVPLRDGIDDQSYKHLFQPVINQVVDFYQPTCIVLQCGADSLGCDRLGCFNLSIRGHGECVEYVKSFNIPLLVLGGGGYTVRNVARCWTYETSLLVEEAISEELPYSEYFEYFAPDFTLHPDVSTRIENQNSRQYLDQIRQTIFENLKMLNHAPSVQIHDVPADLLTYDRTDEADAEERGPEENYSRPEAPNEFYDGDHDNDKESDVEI
MEASUREMENT TYPE: IC50 (µM)

P: NC(=O)c1ccc(COc2ccc(-n3cc4cccc(C(N)=O)c4n3)cc2)cc1
Q: NC(=O)/C=C/c1ccc(COc2ccc(-n3cc4cccc(C(N)=O)c4n3)cc2)cc1
Lookup: Endpoint returns whichever of P and Q has the numerically higher IC50. Please identify the chosen entry by its label.
Found: P
(P: 7.22 µM, Q: 2.19 µM)

###

- TESTED SYSTEM: Histone deacetylase 8 (Homo sapiens)
- Sequence (Q9BY41 whole entry): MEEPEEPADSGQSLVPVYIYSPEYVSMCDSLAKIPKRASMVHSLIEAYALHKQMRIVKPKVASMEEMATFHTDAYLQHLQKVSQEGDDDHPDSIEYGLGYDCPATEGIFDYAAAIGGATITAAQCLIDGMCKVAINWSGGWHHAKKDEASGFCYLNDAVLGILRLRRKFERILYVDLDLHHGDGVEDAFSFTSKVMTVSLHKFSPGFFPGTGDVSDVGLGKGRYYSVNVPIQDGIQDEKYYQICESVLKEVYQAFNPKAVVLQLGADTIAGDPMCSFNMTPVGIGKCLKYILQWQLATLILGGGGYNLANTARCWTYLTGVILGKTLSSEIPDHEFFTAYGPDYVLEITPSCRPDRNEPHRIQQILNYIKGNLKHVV
MEASUREMENT TYPE: IC50

Lookup: Entry NC(=O)/C=C/c1ccc(COc2ccc(-n3cc4cccc(C(N)=O)c4n3)cc2)cc1 : reported IC50 = ?
Found: > 100 µM

All figures here come from ChEMBL document CHEMBL5113426.
